# Lookup of reported pIC50 keyed by entry
Target: GSK‐3β (Homo sapiens)
Construct: purchased Thermo Fisher SelectScreen service
Sequence (P49841 whole entry): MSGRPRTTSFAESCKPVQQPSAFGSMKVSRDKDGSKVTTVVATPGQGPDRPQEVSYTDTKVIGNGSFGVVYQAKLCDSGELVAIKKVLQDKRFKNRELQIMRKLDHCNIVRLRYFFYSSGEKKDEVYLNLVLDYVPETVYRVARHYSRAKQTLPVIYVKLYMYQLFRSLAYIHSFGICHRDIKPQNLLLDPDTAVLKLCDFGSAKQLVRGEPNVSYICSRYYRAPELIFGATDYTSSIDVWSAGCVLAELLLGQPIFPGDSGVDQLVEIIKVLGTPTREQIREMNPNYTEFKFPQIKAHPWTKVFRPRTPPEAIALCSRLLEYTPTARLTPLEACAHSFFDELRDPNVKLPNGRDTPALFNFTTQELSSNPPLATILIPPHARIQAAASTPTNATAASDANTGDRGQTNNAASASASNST
Assay: Kinase IC50 (SelectScreen)
Format: biochemical
Settings: Suppl. Table 2 comparison with commercially available inhibitors; read-out: Kinase IC50 GSK-3b
pIC50: −log10 of the molar value.

// known answers, use as guide
CCN1/C(=C/C(C)=O)Sc2ccc(O)cc21 [INDY] :: < 5.00
CCN1/C(=C/C(C)=O)Sc2ccc(OC)cc21 [TG003] :: < 5.00
O=C1NC(Nc2ccccc2)=N/C1=C\c1ccc2c(c1)OCO2 [Leucettine L41] :: 5.96
O=C(O[C@@H]1Cc2c(O)cc(O)cc2O[C@@H]1c1cc(O)c(O)c(O)c1)c1cc(O)c(O)c(O)c1 [EGCG, Epigallocatechin gallate] :: < 5.00

Could you now consider this next compound?
Data request: State its pIC50: COC(=N)c1nc2ccc3ncnc(Nc4ccc(Cl)cc4Cl)c3c2s1 [EHT-5372]
Data returned: < 5.00
